# study system: Cyclin-dependent kinase 5/CDK5 activator 1 (Homo sapiens, UniProt Q00535)
# Sequence (Q00535 whole entry): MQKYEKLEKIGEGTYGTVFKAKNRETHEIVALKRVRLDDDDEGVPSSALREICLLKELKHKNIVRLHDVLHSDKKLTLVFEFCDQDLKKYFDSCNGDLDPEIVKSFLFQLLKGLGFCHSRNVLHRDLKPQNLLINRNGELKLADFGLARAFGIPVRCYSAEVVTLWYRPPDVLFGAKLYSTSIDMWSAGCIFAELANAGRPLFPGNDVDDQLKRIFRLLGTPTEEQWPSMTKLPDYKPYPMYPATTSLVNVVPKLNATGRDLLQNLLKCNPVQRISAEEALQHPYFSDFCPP
# Sequence (Q15078 whole entry, further chain): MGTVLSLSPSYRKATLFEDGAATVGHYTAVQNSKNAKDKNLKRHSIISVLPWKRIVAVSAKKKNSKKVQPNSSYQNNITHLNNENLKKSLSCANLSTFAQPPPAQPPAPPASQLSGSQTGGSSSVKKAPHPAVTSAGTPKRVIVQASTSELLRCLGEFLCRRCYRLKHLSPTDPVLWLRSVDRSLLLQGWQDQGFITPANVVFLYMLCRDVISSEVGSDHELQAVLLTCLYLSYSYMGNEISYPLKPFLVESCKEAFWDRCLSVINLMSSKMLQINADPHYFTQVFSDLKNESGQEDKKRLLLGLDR
# assay comment: Inhibition of CDK5/p25 (unknown origin) after 30 mins by SDS-PAGE analysis
# Format: protein-complex assay
property: IC50 (µM)

compound: O=c1cc(-c2ccc(O)cc2)oc2c(-c3c(O)cc(O)c4c(=O)cc(-c5ccc(O)cc5)oc34)c(O)cc(O)c12 [CUPRESSUFLAVONE]
readout units: µM
IC50: 9.29

compound: O=C1/C(=C/c2ccc(O)c(O)c2)Oc2cc(O)ccc21 [SULFURETIN]
readout units: µM
IC50: 37

I: O=C1/C(=C/c2ccc(O)c(O)c2)Oc2cc(O)cc(O)c21 [AUREUSIDIN]
II: O=C1c2c(O[C@@H]3O[C@H](CO)[C@@H](O)[C@H](O)[C@H]3O)cc(O)cc2OC1(O)Cc1ccc(O)cc1 (stereo partly specified)
III: O=c1c(O[C@@H]2O[C@H](CO)[C@H](O)[C@H](O)[C@H]2O)c(-c2ccc(O)c(O)c2)oc2cc(O)cc(O)c12 [HYPEROSIDE]
IV: O=C1/C(=C/c2ccc(O)c(O)c2)Oc2cc(O[C@@H]3O[C@H](CO)[C@@H](O)[C@H](O)[C@H]3O)cc(O)c21
Put these in order: smallest IC50 first, largest last. State the ranking by listing the labels in the requested order.
I, III, IV, II
(I: 3.5 µM, III: 10.3 µM, IV: 22.3 µM, II: 44.4 µM)
